The measurements presented in this section are drawn from PubChem BioAssay (NCI).

test system: SNB-19 CNS; assay: NCI tumour cell line growth inhibition, 48 h
Measurement label: TGI

* O=C1OC2(c3ccccc3Oc3ccccc32)c2ccccc21 | > 100 µM
* NC1CC(=O)c2cc(Br)sc21 (stereo unspecified) | > 100 µM
* CC(=O)N1c2ccccc2Sc2cc(C(O)(C(F)(F)F)C(F)(F)F)ccc21 | > 10 µM
* Cn1c2nc3ccccc3c-2cc2ccccc21 | > 100 µM
* CCCCCCCCCCCCCCCCP(=O)(O)OP(=O)(O)OCC1OC(n2cnc3c(N)ncnc32)C(O)C1O (stereo unspecified) | 42 µM
* COc1ccc(CN(CCc2c[nH]c3ccccc23)Cc2ccc(OC)cc2)cc1 | > 44.4 µM
* CC(C)(C)N1NC1C1NN1C(C)(C)C (stereo unspecified) | > 100 µM
* O=C1CCC2SC1CCC2=O | > 100 µM
* c1ccc(N=C2c3ccccc3C3=NCCCN32)cc1 | > 100 µM
* CCOC(=O)CC[C@@H](NC(=O)c1ccc(N[C@@H]2c3cc4c(cc3C(c3cc(OC)c(O)c(OC)c3)C3C(=O)OC[C@@H]32)OCO4)cc1)C(=O)OCC (stereo partly specified) | 0.116 µM
* Cc1cc(Cl)ccc1N=NC(=O)NNc1ccc(Cl)cc1C | 48.9 µM
